- System: Brassica napus
- Assay Remarks: Post-emergence herbicidal activity against Brassica napus (oilseed rape) at 300 g/ha applied through spraying after first true leaf expanded
- Format: functional
Parameter Measured: Activity (%)
Just the number please, in %, no unit attached.

The following compounds have reported results that may help.
CS/C(NCc1ccc(Cl)nc1)=C(/C#N)C(=O)N1CCOCC1 ... 0
CS/C(NCc1ccc(Cl)nc1)=C(/C#N)C(=O)OCC1CCCO1 (stereo unspecified) ... 97.3
CCOCCOC(=O)/C(C#N)=C(\NCc1ccc(Cl)nc1)C(C)C ... 100

Please report the recorded Activity for CCOCCOC(=O)/C(C#N)=C(/NCc1ccc(Cl)nc1)SC .
100

Field entry: C=CCOC(=O)/C(C#N)=C(/NCc1ccc(Cl)nc1)SC
82.7

Here is the next compound: CCOCCOC(=O)/C(C#N)=C(/CC)NCc1ccc(Cl)nc1
98.4

====

- Tested on: Amaranthus retroflexus
- Assay Remarks: Pre-emergence herbicidal activity against Amaranthus retroflexus at 1.5 kg/ha applied through spraying immediately after seed plantings
- Type: functional
Parameter Measured: Activity (%)
Express the result in % but write the number alone.

Examples from the recorded data:
CCCOc1ccc(CN/C(SC)=C(\C#N)C(=O)OCCOCC)cn1 ... 0
CCOc1ccc(CN/C(SC)=C(\C#N)C(=O)OCCOC)cn1 ... 31.3
COCCOC(=O)/C(C#N)=C(/NCc1ccc(OC)nc1)SC ... 50
CCOCCOC(=O)/C(C#N)=C(/NCc1ccc(OC)nc1)SC ... 56.3

Observed Activity on Amaranthus retroflexus for COC(=O)COC(=O)/C(C#N)=C(/NCc1ccc(Cl)nc1)SC , please.
0

Same again, this time with CCCOc1ccc(CN/C(C)=C(/C#N)C(=O)OCCOCC)cn1
23.4

Follow-up entry: CCCCOc1ccc(CN/C(=C(/C#N)C(=O)OCCOCC)C(C)C)cn1
10.1

====

- Test system: Zea mays
- Assay Remarks: Phytotoxicity against Zea mays (maize) at 750 g/ha
- Assay type: organism-based
- Test Settings: in vivo
Parameter Measured: Activity

CCCOc1ccc(CN/C(SC)=C(\C#N)C(=O)OCCOCC)cn1 ... Non-toxic
C=CCOC(=O)/C(C#N)=C(/NCc1ccc(Cl)nc1)SCC ... Non-toxic
CCOCCOC(=O)/C(C#N)=C(/NCc1ccc(OCC)nc1)SC ... Non-toxic
COCCOC(=O)/C(C#N)=C(/NCc1ccc(OC)nc1)SC ... Non-toxic
CS/C(NCc1ccc(Cl)nc1)=C(/C#N)C(=O)OCC1CCCO1 (stereo unspecified) ... Non-toxic
CCCOc1ccc(CN/C(C)=C(/C#N)C(=O)OCCOCC)cn1 ... Non-toxic
COC(=O)COC(=O)/C(C#N)=C(/NCc1ccc(Cl)nc1)SC ... Non-toxic
CCCOc1ccc(CN/C(=C(/C#N)C(=O)OCCOCC)C(C)C)cn1 ... Non-toxic
CCOCCOC(=O)/C(C#N)=C(\NCc1ccc(Cl)nc1)C(C)C ... Non-toxic
CCOCCOC(=O)/C(C#N)=C(/C)NCc1ccc(Cl)nc1 ... Non-toxic

# input for lookup
So what's the measured Activity for this one? CCCCOc1ccc(CN/C(=C(/C#N)C(=O)OCCOCC)C(C)C)cn1
Non-toxic

====

- Test system: Amaranthus retroflexus
- Assay Remarks: Post-emergence herbicidal activity against Amaranthus retroflexus at 75 g/ha applied through spraying after first true leaf expanded
- Type: functional
Answer F if Activity is under 20%, and T if it is 20% or more.

Quick check: does CS/C(NCc1ccc(Cl)nc1)=C(/C#N)C(=O)N1CCOCC1 have Activity greater than or equal to 20%?
F

Lookup C=CCOC(=O)/C(C#N)=C(/NCc1ccc(Cl)nc1)SC
T

// next record CCOCCOC(=O)/C(C#N)=C(/CC)NCc1ccc(Cl)nc1
T
